Sourced from ChEMBL document CHEMBL5444388

# TARGET: Protein arginine N-methyltransferase 7 (Homo sapiens, UniProt Q9NVM4)
# Sequence (Q9NVM4 whole entry): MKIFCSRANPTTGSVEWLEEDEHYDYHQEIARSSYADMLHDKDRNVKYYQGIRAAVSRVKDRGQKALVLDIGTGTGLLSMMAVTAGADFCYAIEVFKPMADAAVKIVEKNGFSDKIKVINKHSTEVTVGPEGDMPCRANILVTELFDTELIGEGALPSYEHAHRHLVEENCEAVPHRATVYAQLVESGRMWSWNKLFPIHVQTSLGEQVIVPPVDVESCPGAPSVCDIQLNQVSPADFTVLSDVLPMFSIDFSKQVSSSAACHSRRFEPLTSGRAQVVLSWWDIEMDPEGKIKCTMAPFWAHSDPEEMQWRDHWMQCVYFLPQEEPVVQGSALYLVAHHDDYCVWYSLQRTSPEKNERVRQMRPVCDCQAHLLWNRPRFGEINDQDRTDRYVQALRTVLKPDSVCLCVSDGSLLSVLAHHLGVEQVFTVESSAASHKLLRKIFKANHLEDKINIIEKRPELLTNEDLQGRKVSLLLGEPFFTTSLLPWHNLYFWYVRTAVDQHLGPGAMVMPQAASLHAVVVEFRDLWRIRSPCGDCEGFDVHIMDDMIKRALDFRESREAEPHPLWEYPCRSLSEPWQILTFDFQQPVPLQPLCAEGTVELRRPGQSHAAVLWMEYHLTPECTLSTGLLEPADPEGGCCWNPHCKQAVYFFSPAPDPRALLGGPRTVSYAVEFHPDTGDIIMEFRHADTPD
# PROCEDURE DETAILS: Affinity Phenotypic Cellular interaction: (HSP70 monomethylation in C2C12 cells) EUB0000236b PRMT7
PARAMETER: IC50

Problem: Need IC50 of CC1=C(C)C(=O)C(C(C)(C)CC(=O)N(CCCCSC[C@H]2O[C@@H](n3cnc4c(N)ncnc43)[C@@H]3OC(C)(C)O[C@@H]32)Cc2cccc(-c3ccc(Cl)cc3)c2)=C(C)C1=O , thanks.
Result: > 40 µM

----------
# TARGET: Leucine-rich repeat serine/threonine-protein kinase 2 (Homo sapiens, UniProt Q5S007, G2019S)
# Type: functional, subcellular, Brain, lysate
PARAMETER: IC50 (nM)
# value in nM; strip the unit string

Problem: Need IC50 of N#Cc1cccc(-c2c[nH]c3ncnc(N4CCOCC4)c23)c1 , thanks.
Result: 103

----------
# TARGET: MAP kinase-activated protein kinase 5 (Homo sapiens)
# Sequence (Q8IW41 whole entry): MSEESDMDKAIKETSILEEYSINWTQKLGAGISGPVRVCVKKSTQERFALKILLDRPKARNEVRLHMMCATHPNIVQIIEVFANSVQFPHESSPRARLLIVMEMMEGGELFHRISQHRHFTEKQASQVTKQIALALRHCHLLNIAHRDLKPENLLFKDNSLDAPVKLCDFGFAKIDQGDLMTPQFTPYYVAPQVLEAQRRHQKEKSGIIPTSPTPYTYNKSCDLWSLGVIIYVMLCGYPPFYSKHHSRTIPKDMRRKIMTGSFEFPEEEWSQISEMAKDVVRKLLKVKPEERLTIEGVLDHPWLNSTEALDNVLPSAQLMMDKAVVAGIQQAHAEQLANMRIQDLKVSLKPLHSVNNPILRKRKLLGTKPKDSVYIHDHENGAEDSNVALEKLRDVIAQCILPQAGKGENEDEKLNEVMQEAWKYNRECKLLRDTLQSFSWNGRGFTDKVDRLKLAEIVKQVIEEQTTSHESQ
# Assay type: functional, cell-based, Monocyte
PARAMETER: IC50
Answer shape: numeric part, then the unit.

Problem: Need IC50 of Cc1ccc(-c2ccc3c(ccc4sc5c(c43)NC[C@@H](C)NC5=O)n2)cn1 , thanks.
Result: 2.78 µM

----------
# TARGET: Bromodomain-containing protein 3 (Homo sapiens)
# Sequence (Q15059 whole entry): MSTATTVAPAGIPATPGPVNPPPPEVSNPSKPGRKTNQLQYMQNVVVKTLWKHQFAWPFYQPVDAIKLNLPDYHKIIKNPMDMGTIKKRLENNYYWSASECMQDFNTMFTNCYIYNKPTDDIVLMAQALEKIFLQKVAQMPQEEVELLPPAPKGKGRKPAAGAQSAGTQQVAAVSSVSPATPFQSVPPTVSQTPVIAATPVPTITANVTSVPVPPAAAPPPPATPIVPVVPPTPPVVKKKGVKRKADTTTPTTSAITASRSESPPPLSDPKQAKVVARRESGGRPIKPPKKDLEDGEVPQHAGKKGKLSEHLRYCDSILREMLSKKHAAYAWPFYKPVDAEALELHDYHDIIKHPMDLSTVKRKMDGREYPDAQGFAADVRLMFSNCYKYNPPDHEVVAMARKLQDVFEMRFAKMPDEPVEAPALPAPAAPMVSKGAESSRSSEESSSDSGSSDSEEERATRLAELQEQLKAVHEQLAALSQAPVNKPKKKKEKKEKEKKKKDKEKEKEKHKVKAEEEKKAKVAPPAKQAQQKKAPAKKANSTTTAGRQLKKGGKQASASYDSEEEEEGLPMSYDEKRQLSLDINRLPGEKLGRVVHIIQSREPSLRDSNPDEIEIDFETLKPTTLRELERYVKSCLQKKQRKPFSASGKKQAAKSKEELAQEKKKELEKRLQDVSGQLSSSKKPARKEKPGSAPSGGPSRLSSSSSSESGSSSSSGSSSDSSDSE
# Assay type: functional, cell-based, PBMC
PARAMETER: IC50
Answer shape: numeric part, then the unit.

Problem: Need IC50 of COc1cc2c(cc1-c1c(C)noc1C)ncc1[nH]c(=O)n([C@H](C)c3ccccn3)c12 , thanks.
Result: 160 nM

----------
# TARGET: Cyclin-dependent kinase 8 (Homo sapiens)
# Sequence (P49336 whole entry, looked up, change not shown): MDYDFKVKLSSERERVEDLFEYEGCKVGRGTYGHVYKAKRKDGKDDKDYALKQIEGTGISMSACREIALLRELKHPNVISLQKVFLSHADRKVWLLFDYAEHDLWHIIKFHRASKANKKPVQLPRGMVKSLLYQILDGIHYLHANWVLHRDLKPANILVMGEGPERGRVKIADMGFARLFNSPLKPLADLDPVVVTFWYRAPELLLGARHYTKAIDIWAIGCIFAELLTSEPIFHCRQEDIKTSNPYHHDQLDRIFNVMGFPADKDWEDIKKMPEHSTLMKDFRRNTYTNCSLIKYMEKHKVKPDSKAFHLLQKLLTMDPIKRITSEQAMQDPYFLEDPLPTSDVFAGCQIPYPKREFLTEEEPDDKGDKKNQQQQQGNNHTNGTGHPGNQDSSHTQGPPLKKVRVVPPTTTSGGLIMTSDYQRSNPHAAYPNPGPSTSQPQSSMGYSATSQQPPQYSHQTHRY
# PROCEDURE DETAILS: Affinity Phenotypic Cellular interaction: (Reporter-based luciferase assay (in LS174T cell line (xcexb2-catenin mutant) bearing activating WNT-pathway mutations)) EUB0001623a CDK8
# Format: functional
# Parameters: mode of action Inhibitor, recommended concentration 100 nM
PARAMETER: pIC50
To interpret pIC50, take it as minus log10 of a concentration measured in moles per litre.

Problem: Short answer please: pIC50, Cyclin-dependent kinase 8 (Homo sapiens), entry Cc1n[nH]c2ncc(C(=O)N3CCC[C@H]3c3ccc(Cl)cc3)cc12
Result: 4.49

----------
# TARGET: MAP kinase-activated protein kinase 5 (Homo sapiens, UniProt Q8IW41)
# Type: functional, cell-based, Monocyte
PARAMETER: IC50 (nM)
# value in nM; strip the unit string

Problem: Need IC50 of Cc1ccc(-c2ccc3c(ccc4sc5c(c43)NC[C@@H](C)NC5=O)n2)cn1 , thanks.
Result: 1260

----------
# TARGET: RAF proto-oncogene serine/threonine-protein kinase (Homo sapiens, UniProt P04049)
# Sequence (P04049 whole entry): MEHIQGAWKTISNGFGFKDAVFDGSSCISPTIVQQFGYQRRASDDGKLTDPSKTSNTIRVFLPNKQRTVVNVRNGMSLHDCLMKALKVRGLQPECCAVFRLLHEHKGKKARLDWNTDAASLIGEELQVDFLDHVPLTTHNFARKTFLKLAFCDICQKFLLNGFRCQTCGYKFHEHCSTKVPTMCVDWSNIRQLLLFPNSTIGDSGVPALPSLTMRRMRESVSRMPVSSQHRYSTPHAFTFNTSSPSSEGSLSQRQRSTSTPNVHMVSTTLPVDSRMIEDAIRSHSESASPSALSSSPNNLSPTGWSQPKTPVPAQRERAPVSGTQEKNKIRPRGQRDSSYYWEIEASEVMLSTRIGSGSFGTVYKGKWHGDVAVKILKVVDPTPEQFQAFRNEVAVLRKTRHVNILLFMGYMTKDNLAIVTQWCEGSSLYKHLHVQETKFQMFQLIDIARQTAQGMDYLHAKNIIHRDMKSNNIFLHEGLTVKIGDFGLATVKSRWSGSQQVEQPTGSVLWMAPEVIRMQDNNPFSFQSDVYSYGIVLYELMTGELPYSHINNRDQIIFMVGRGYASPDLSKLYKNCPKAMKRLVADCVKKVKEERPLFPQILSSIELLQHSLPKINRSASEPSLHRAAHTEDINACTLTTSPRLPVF
# PROCEDURE DETAILS: Affinity Phenotypic Cellular interaction: (Western blot assay (phosphorylation of ERK in PREC cells expressing BRAF/RAS wt)) EUB0000655a RAF1
# Type: functional, cell-based
# Design: mode of action Inhibitor, recommended concentration 1 uM
PARAMETER: IC50 (µM)
# value in µM; strip the unit string

Problem: Need IC50 of CN(C)CCOc1ccc(-c2nc(-c3ccncc3)c(-c3ccc4c(c3)CC/C4=N\O)[nH]2)cc1 , thanks.
Result: 6.1

----------
# TARGET: Casein kinase I isoform alpha (Homo sapiens)
# Sequence (P48729 whole entry, canonical isoform): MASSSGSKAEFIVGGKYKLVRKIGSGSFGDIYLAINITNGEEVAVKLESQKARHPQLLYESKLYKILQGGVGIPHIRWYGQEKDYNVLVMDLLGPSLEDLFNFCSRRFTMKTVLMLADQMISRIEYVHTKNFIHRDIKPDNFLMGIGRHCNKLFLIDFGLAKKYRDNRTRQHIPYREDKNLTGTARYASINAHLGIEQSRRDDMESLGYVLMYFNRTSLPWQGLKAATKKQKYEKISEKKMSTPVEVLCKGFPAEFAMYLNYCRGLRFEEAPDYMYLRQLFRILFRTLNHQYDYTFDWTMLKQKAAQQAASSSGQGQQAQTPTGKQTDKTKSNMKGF
# PROCEDURE DETAILS: Affinity Phenotypic Cellular interaction: (Western Blot assay (inhibition of CSNK1D/E-mediated phosphorylation of DVL3, analyzed by change in phosphorylation-dependent mobility shift)) EUB0001205a CSNK1A1
PARAMETER: EC50 (nM)
# value in nM; strip the unit string

Problem: Need EC50 of CN1CCC(F)(Cn2cnc(-c3ccc(F)cn3)c2-c2ccnc3[nH]ccc23)CC1 , thanks.
Result: 200

----------
# TARGET: Cyclin-dependent kinase 13 (Homo sapiens)
# Sequence (Q14004 whole entry): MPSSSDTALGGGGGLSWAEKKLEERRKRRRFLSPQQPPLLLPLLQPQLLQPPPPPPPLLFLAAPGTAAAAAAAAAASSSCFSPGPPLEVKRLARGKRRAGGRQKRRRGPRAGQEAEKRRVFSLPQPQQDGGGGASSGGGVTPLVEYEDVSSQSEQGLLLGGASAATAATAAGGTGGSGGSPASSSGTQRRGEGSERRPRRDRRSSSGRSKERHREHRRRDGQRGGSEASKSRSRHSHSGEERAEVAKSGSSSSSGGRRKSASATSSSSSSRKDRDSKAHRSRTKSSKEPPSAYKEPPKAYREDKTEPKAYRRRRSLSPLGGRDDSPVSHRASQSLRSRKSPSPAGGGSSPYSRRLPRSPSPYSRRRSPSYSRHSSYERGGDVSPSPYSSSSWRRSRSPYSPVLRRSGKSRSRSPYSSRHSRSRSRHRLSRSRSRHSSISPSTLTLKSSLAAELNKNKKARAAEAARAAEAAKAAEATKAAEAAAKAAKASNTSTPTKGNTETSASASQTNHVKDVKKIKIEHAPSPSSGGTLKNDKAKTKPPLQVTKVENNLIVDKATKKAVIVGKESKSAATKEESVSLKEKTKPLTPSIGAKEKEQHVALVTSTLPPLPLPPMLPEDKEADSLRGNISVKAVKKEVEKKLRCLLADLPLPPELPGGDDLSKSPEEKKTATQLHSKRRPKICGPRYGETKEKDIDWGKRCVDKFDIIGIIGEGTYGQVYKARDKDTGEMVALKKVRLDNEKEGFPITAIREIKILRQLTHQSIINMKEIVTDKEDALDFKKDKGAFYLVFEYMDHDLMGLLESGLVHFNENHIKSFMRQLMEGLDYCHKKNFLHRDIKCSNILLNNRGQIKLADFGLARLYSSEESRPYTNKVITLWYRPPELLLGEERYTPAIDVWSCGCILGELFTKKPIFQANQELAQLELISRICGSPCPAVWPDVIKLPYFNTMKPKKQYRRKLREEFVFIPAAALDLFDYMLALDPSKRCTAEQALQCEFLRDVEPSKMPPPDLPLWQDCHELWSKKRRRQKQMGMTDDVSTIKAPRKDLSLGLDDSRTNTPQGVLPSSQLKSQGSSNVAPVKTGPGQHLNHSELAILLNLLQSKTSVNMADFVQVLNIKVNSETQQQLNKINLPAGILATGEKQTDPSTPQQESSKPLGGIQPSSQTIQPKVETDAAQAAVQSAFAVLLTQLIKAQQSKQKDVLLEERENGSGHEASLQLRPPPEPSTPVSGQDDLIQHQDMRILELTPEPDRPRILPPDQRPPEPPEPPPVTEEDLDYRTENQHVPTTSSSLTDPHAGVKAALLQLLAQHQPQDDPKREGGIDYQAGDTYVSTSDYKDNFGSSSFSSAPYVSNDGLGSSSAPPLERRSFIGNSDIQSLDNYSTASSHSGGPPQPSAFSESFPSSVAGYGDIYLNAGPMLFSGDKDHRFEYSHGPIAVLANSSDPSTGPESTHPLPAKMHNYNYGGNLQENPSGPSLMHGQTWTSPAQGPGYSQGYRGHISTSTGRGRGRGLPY
# PROCEDURE DETAILS: Affinity Phenotypic Cellular interaction: (In-Cell western blot (using MDA-MB-231 cells)) EUB0001632a CDK13
PARAMETER: pEC50
To interpret pEC50, take it as minus log10 of a concentration measured in moles per litre.

Problem: Short answer please: pEC50, Cyclin-dependent kinase 13 (Homo sapiens), entry Cn1cc(-n2cnc3c(NCc4nc5cc(Cl)c(Cl)cc5[nH]4)nc(N4CCOCC4)nc32)cn1
Result: 6.98

----------
# TARGET: Protein arginine N-methyltransferase 1 (Homo sapiens)
# Sequence (Q99873 whole entry): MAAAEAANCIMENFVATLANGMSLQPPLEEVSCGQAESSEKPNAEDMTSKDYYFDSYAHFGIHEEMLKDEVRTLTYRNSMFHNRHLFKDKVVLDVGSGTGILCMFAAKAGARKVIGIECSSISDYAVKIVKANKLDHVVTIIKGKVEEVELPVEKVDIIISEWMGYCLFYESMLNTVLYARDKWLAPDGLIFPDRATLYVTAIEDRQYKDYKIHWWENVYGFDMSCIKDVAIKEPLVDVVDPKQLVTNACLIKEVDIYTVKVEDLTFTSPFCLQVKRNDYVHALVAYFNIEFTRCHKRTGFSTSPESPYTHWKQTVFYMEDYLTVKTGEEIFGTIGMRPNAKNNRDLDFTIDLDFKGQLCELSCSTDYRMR
# PROCEDURE DETAILS: Affinity Phenotypic Cellular interaction: (Western Blot (inhibitor of H4R3 methylation in MCF-7 cells)) EUB0000261b PRMT1
PARAMETER: IC50

Problem: Need IC50 of CC(C)Oc1ccc(-c2c[nH]cc2CN(C)CCO)cc1 , thanks.
Result: > 50 µM

----------
# TARGET: Bromodomain testis-specific protein (Homo sapiens)
# PROCEDURE DETAILS: Affinity Phenotypic Cellular interaction: (Meso-scale discovery human IL6 assay (cytokine production in LPS stimulated PBMC cells)) EUB0000102c BRDT
# Format: functional, cell-based
# Design: mode of action Inhibitor, recommended concentration 1 uM
PARAMETER: IC50 (nM)
# value in nM; strip the unit string

Problem: Need IC50 of COc1cc2c(cc1-c1c(C)noc1C)ncc1[nH]c(=O)n([C@H](C)c3ccccn3)c12 , thanks.
Result: 160

----------
# TARGET: Casein kinase I isoform delta (Homo sapiens)
# Sequence (P48730 whole entry, canonical isoform): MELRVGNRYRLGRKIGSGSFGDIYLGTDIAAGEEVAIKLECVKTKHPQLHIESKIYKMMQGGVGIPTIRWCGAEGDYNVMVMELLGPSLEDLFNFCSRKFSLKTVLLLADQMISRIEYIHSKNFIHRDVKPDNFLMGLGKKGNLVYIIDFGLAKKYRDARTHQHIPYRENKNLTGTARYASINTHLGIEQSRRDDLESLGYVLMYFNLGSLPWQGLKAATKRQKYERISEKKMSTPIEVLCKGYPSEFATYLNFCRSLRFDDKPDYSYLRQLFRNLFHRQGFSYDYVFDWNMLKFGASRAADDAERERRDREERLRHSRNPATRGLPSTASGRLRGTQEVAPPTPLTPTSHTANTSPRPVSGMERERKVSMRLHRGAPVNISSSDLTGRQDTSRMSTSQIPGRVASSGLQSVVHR
# Format: functional
PARAMETER: IC50 (nM)
# value in nM; strip the unit string

Problem: Need IC50 of CN1CCC(F)(Cn2cnc(-c3ccc(F)cn3)c2-c2ccnc3[nH]ccc23)CC1 , thanks.
Result: 1600

----------
# TARGET: RAF proto-oncogene serine/threonine-protein kinase (Homo sapiens)
# PROCEDURE DETAILS: Affinity Phenotypic Cellular interaction: (Western blot assay (phosphorylation of ERK in SKMEL2 cells expressing BRAF wt/N-Ras2(Q61R))) EUB0000655a RAF1
# Format: functional, cell-based, SK-MEL-2
# Parameters: mode of action Inhibitor, recommended concentration 1 uM
PARAMETER: IC50 (µM)
# value in µM; strip the unit string

Problem: Short answer please: IC50, RAF proto-oncogene serine/threonine-protein kinase (Homo sapiens), entry CN(C)CCOc1ccc(-c2nc(-c3ccncc3)c(-c3ccc4c(c3)CC/C4=N\O)[nH]2)cc1
Result: 1.5

----------
# TARGET: Casein kinase I isoform alpha (Homo sapiens)
# Type: functional
PARAMETER: pIC50
To interpret pIC50, take it as minus log10 of a concentration measured in moles per litre.

Problem: Need pIC50 of CN1CCC(F)(Cn2cnc(-c3ccc(F)cn3)c2-c2ccnc3[nH]ccc23)CC1 , thanks.
Result: 5.80
